Reported viability, T/C values are given for each entry in this list.
system: 616215-338-R-J1-PDC spheroids with HUVEC/MSC, viability; experiment: Anticancer human tumor 616215-338-R-J1-PDC patient-derived colon adenocarcinoma cell line growth inhibition [PI3K]; conditions: second compound 0.01 µM; first compound 0.1 µM; hits give low values
Your answer should be a plain number; it is taken to be in %.

Here is how some compounds turned out for viability, T/C.
1) C#Cc1c(F)ccc2cc(O)cc(-c3ncc4c(N5CC6CCC(C5)N6)nc(OCC56CCCN5CC(F)C6)nc4c3F)c12 (stereo not given) + CC(Nc1ccc2c(c1)OCCn1cc(N3C(=O)OCC3C(F)F)nc1-2)C(N)=O
94
2) CC(C)NCC(C(=O)N1CCN(c2ncnc3c2C(C)CC3O)CC1)c1ccc(Cl)cc1 (stereo not given) + CC(Nc1ccc2c(c1)OCCn1cc(N3C(=O)OCC3C(F)F)nc1-2)C(N)=O
102
3) CC1(C)CCC(Nc2ncc(C(F)(F)F)c(-c3c[nH]c4c(P(C)(C)=O)c(C#N)ccc34)n2)CN1 (stereo not given) + CC(Nc1ccc2c(c1)OCCn1cc(N3C(=O)OCC3C(F)F)nc1-2)C(N)=O
54.3
4) CCCS(=O)(=O)Nc1ccc(F)c(C(=O)c2c[nH]c3ncc(-c4ccc(Cl)cc4)cc23)c1F + COc1c(OCCCN2CCOCC2)ccc2c3n(c(=NC(=O)c4cnc(N)nc4)nc12)CCN3
104

Consider now this further compound.
[in] # return recorded viability, T/C for input CC1(C)CCC(CN2CCN(c3ccc(C(=O)NS(=O)(=O)c4ccc(NCC5CCOCC5)c([N+](=O)[O-])c4)c(Oc4cnc5[nH]ccc5c4)c3)CC2)=C(c2ccc(Cl)cc2)C1 + CC(Nc1ccc2c(c1)OCCn1cc(N3C(=O)OCC3C(F)F)nc1-2)C(N)=O
[out] 101

----------
Test system: 616215-338-R-J1-PDC spheroids with HUVEC/MSC, viability
Test: Anticancer human tumor 616215-338-R-J1-PDC cell line growth inhibition [PI3K];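 further: spheroids exposed to agents for seven days before the viability read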
Settings: second compound 10 µM; first compound 0.0316 µM; hits give low values
From the text: Combinatorial screen of targeted agents with the PI3K inhibitors inavolisib, alpelisib, duvelisib, and copanlisib in multi-cell type tumor spheroids A high-throughput screen of multi-cell type tumor spheroids was designed to identify active combinations of targeted small molecules and PI3K pathway inhibitors. […] Compounds. […] If the clinical Cmax for an agent had not been determined, the highest concentration tested was 10 microM. […]
reported property: viability, T/C (%)
// note: answer is a bare numeric in %

In the examples that follow, each entry is paired with its recorded viability, T/C.
1) C=CC(=O)N1CCN(c2nc(=O)n(-c3c(C)ccnc3C(C)C)c3nc(-c4c(O)cccc4F)c(F)cc23)C(C)C1 (stereo not drawn) + Cc1nc(NC(=O)N2CCCC2C(N)=O)sc1-c1ccnc(C(C)(C)C(F)(F)F)c1
94.4
2) C[C@@H](NC(=O)c1ncnc(N)c1Cl)c1ncc(C(=O)Nc2cc(C(F)(F)F)c(Cl)cn2)s1 + Cc1nc(NC(=O)N2CCCC2C(N)=O)sc1-c1ccnc(C(C)(C)C(F)(F)F)c1
97.5

# ---- query molecule ----
[in] In one line, give reported viability, T/C of the entry CC1(C)CCC(Nc2ncc(C(F)(F)F)c(-c3c[nH]c4c(P(C)(C)=O)c(C#N)ccc34)n2)CN1 (stereo not drawn) + Cc1nc(NC(=O)N2CCCC2C(N)=O)sc1-c1ccnc(C(C)(C)C(F)(F)F)c1 .
[out] 61.6
